run-description: activity coefficient (dimensionless); of the first substance listed, at infinite dilution; xn = mol fraction of the nth substance listed
run-parameters: 328.15 K; Liquid; Chromatography; x1 = 0
Assign classes using reported activity coefficient values and the ranges range A: < 2; range B: ≥ 2 and < 7; range C: ≥ 7, please.

Which bin should I file C#CCCCCC [1-heptyne] + COCC[N+]1(C)CCOCC1.O=S(=O)([N-]S(=O)(=O)C(F)(F)F)C(F)(F)F under?
range C

Which bin should I file CC1CCCCC1 [methylcyclohexane] + COCC[N+]1(C)CCOCC1.O=S(=O)([N-]S(=O)(=O)C(F)(F)F)C(F)(F)F under?
range C

Which bin should I file CCOC(C)=O [ethyl acetate] + COCC[N+]1(C)CCOCC1.O=S(=O)([N-]S(=O)(=O)C(F)(F)F)C(F)(F)F under?
range A

Which bin should I file CC(C)OC(C)C [diisopropyl ether] + COCC[N+]1(C)CCOCC1.O=S(=O)([N-]S(=O)(=O)C(F)(F)F)C(F)(F)F under?
range C

Which bin should I file CCCC=O [butanal] + COCC[N+]1(C)CCOCC1.O=S(=O)([N-]S(=O)(=O)C(F)(F)F)C(F)(F)F under?
range A

Which bin should I file CCCCCCC [heptane] + COCC[N+]1(C)CCOCC1.O=S(=O)([N-]S(=O)(=O)C(F)(F)F)C(F)(F)F under?
range C

Which bin should I file O [water] + COCC[N+]1(C)CCOCC1.O=S(=O)([N-]S(=O)(=O)C(F)(F)F)C(F)(F)F under?
range B

Which bin should I file CCCCCCCCCC [decane] + COCC[N+]1(C)CCOCC1.O=S(=O)([N-]S(=O)(=O)C(F)(F)F)C(F)(F)F under?
range C

Which bin should I file CC(C)=O [acetone] + COCC[N+]1(C)CCOCC1.O=S(=O)([N-]S(=O)(=O)C(F)(F)F)C(F)(F)F under?
range A

Which bin should I file C1CCCCC1 [cyclohexane] + COCC[N+]1(C)CCOCC1.O=S(=O)([N-]S(=O)(=O)C(F)(F)F)C(F)(F)F under?
range C

Which bin should I file C1CCCCCCC1 [cyclooctane] + COCC[N+]1(C)CCOCC1.O=S(=O)([N-]S(=O)(=O)C(F)(F)F)C(F)(F)F under?
range C

Which bin should I file CCOCC [diethyl ether] + COCC[N+]1(C)CCOCC1.O=S(=O)([N-]S(=O)(=O)C(F)(F)F)C(F)(F)F under?
range B

Which bin should I file C=CCCCCCCCC [1-decene] + COCC[N+]1(C)CCOCC1.O=S(=O)([N-]S(=O)(=O)C(F)(F)F)C(F)(F)F under?
range C

Which bin should I file CCCC(=O)OC [methyl butanoate] + COCC[N+]1(C)CCOCC1.O=S(=O)([N-]S(=O)(=O)C(F)(F)F)C(F)(F)F under?
range A

Which bin should I file CCc1ccccc1 [ethylbenzene] + COCC[N+]1(C)CCOCC1.O=S(=O)([N-]S(=O)(=O)C(F)(F)F)C(F)(F)F under?
range B

Which bin should I file C1=CCCCC1 [cyclohexene] + COCC[N+]1(C)CCOCC1.O=S(=O)([N-]S(=O)(=O)C(F)(F)F)C(F)(F)F under?
range C

Which bin should I file CCCC(C)=O [pentan-2-one] + COCC[N+]1(C)CCOCC1.O=S(=O)([N-]S(=O)(=O)C(F)(F)F)C(F)(F)F under?
range A

Which bin should I file COC(C)(C)C [2-methoxy-2-methylpropane] + COCC[N+]1(C)CCOCC1.O=S(=O)([N-]S(=O)(=O)C(F)(F)F)C(F)(F)F under?
range B

Which bin should I file CCCCCC [hexane] + COCC[N+]1(C)CCOCC1.O=S(=O)([N-]S(=O)(=O)C(F)(F)F)C(F)(F)F under?
range C

Which bin should I file C1COCCO1 [1,4-dioxane] + COCC[N+]1(C)CCOCC1.O=S(=O)([N-]S(=O)(=O)C(F)(F)F)C(F)(F)F under?
range A

Which bin should I file CCC(C)(C)OC [2-methoxy-2-methylbutane] + COCC[N+]1(C)CCOCC1.O=S(=O)([N-]S(=O)(=O)C(F)(F)F)C(F)(F)F under?
range B

Which bin should I file CCC(=O)OC [methyl propanoate] + COCC[N+]1(C)CCOCC1.O=S(=O)([N-]S(=O)(=O)C(F)(F)F)C(F)(F)F under?
range A

Which bin should I file CC(C)CO [2-methyl-1-propanol] + COCC[N+]1(C)CCOCC1.O=S(=O)([N-]S(=O)(=O)C(F)(F)F)C(F)(F)F under?
range B

Which bin should I file CCCCO [butan-1-ol] + COCC[N+]1(C)CCOCC1.O=S(=O)([N-]S(=O)(=O)C(F)(F)F)C(F)(F)F under?
range B

Which bin should I file CC#N [acetonitrile] + COCC[N+]1(C)CCOCC1.O=S(=O)([N-]S(=O)(=O)C(F)(F)F)C(F)(F)F under?
range A

Which bin should I file Cc1ccc(C)cc1 [1,4-dimethylbenzene] + COCC[N+]1(C)CCOCC1.O=S(=O)([N-]S(=O)(=O)C(F)(F)F)C(F)(F)F under?
range B

====

So I've got a bunch of molecules here, and I need their activity coefficient values.
run-description: activity coefficient (dimensionless); of the first substance listed, at infinite dilution; xn = mol fraction of the nth substance listed
run-parameters: 368.15 K; Liquid; Chromatography; x1 = 0
Answer with a bare number; do not write a unit.

Annotate the molecule CCCOCCC [dipropyl ether] + COCC[N+]1(C)CCOCC1.O=S(=O)([N-]S(=O)(=O)C(F)(F)F)C(F)(F)F with its measured activity coefficient.
8.97

Annotate the molecule C=CCCCCCCCC [1-decene] + COCC[N+]1(C)CCOCC1.O=S(=O)([N-]S(=O)(=O)C(F)(F)F)C(F)(F)F with its measured activity coefficient.
54.9

Annotate the molecule CC#N [acetonitrile] + COCC[N+]1(C)CCOCC1.O=S(=O)([N-]S(=O)(=O)C(F)(F)F)C(F)(F)F with its measured activity coefficient.
0.436

Annotate the molecule CCCC(=O)OC [methyl butanoate] + COCC[N+]1(C)CCOCC1.O=S(=O)([N-]S(=O)(=O)C(F)(F)F)C(F)(F)F with its measured activity coefficient.
1.48

Annotate the molecule CCCO [propan-1-ol] + COCC[N+]1(C)CCOCC1.O=S(=O)([N-]S(=O)(=O)C(F)(F)F)C(F)(F)F with its measured activity coefficient.
1.52

Annotate the molecule CO [methanol] + COCC[N+]1(C)CCOCC1.O=S(=O)([N-]S(=O)(=O)C(F)(F)F)C(F)(F)F with its measured activity coefficient.
0.897

Annotate the molecule CCCCC [pentane] + COCC[N+]1(C)CCOCC1.O=S(=O)([N-]S(=O)(=O)C(F)(F)F)C(F)(F)F with its measured activity coefficient.
16.3

====

run-description: activity coefficient (dimensionless); of the first substance listed, at infinite dilution; xn = mol fraction of the nth substance listed
run-parameters: 328.15 K; Liquid; Chromatography; x1 = 0
value-kind: activity coefficient
Answer with a bare number; do not write a unit.

Annotate the compound C1CCOC1 [tetrahydrofuran] + COCC[N+]1(C)CCOCC1.O=S(=O)([N-]S(=O)(=O)C(F)(F)F)C(F)(F)F with its measured activity coefficient.
0.867

Annotate the compound Cc1ccccc1C [1,2-dimethylbenzene] + COCC[N+]1(C)CCOCC1.O=S(=O)([N-]S(=O)(=O)C(F)(F)F)C(F)(F)F with its measured activity coefficient.
2.71

Annotate the compound C=CCCCC [hex-1-ene] + COCC[N+]1(C)CCOCC1.O=S(=O)([N-]S(=O)(=O)C(F)(F)F)C(F)(F)F with its measured activity coefficient.
15.3

Annotate the compound CCCO [propan-1-ol] + COCC[N+]1(C)CCOCC1.O=S(=O)([N-]S(=O)(=O)C(F)(F)F)C(F)(F)F with its measured activity coefficient.
2.14

Annotate the compound CCC[N+](=O)[O-] [1-nitropropane] + COCC[N+]1(C)CCOCC1.O=S(=O)([N-]S(=O)(=O)C(F)(F)F)C(F)(F)F with its measured activity coefficient.
0.791

Annotate the compound c1ccsc1 [thiophene] + COCC[N+]1(C)CCOCC1.O=S(=O)([N-]S(=O)(=O)C(F)(F)F)C(F)(F)F with its measured activity coefficient.
1.08

Annotate the compound CCC(C)(C)C [2,2-dimethylbutane] + COCC[N+]1(C)CCOCC1.O=S(=O)([N-]S(=O)(=O)C(F)(F)F)C(F)(F)F with its measured activity coefficient.
28.4

Annotate the compound C#CCCCCCC [1-octyne] + COCC[N+]1(C)CCOCC1.O=S(=O)([N-]S(=O)(=O)C(F)(F)F)C(F)(F)F with its measured activity coefficient.
11

Annotate the compound C=CCCC [1-pentene] + COCC[N+]1(C)CCOCC1.O=S(=O)([N-]S(=O)(=O)C(F)(F)F)C(F)(F)F with its measured activity coefficient.
10.3

Annotate the compound C#CCCCC [1-hexyne] + COCC[N+]1(C)CCOCC1.O=S(=O)([N-]S(=O)(=O)C(F)(F)F)C(F)(F)F with its measured activity coefficient.
4.8

Annotate the compound CCCCCCCC [octane] + COCC[N+]1(C)CCOCC1.O=S(=O)([N-]S(=O)(=O)C(F)(F)F)C(F)(F)F with its measured activity coefficient.
71.6

Annotate the compound CCC(C)CC [3-methylpentane] + COCC[N+]1(C)CCOCC1.O=S(=O)([N-]S(=O)(=O)C(F)(F)F)C(F)(F)F with its measured activity coefficient.
29

Annotate the compound CC(C)CC(C)(C)C [2,2,4-trimethylpentane] + COCC[N+]1(C)CCOCC1.O=S(=O)([N-]S(=O)(=O)C(F)(F)F)C(F)(F)F with its measured activity coefficient.
49.5

Annotate the compound CCCCC [pentane] + COCC[N+]1(C)CCOCC1.O=S(=O)([N-]S(=O)(=O)C(F)(F)F)C(F)(F)F with its measured activity coefficient.
22.5
